protocol_text: Protein binding in mouse plasma at 5 uM incubated for 6 hrs by red equilibrium dialysis based LC-MS/MS analysis
Assay type: ADME, cell-free
particulars: read-out: PPB (converted)
# maps each entry to its fraction unbound at 6 h, 5 µM
test_readout: fraction unbound at 6 h, 5 µM

* CC(C)(O)[C@H](F)CN1Cc2cc(NC(=O)c3cnn4cccnc34)c(N3CCN(C4CC(F)(F)C4)CC3)cc2C1=O | 0.053
* CC(C)(O)[C@H](F)CN1Cc2cc(NC(=O)c3cnn4cccnc34)c(N3CCN(CC(F)F)CC3)cc2C1=O | 0.087
* CC(C)(O)[C@H](F)CN1Cc2cc(NC(=O)c3cnn4cccnc34)c(N3CCOCC3)cc2C1=O | 0.058
